targetOrTestSystem: human Adenosine A2b receptor (Homo sapiens)
Sequence (P29275 1-332): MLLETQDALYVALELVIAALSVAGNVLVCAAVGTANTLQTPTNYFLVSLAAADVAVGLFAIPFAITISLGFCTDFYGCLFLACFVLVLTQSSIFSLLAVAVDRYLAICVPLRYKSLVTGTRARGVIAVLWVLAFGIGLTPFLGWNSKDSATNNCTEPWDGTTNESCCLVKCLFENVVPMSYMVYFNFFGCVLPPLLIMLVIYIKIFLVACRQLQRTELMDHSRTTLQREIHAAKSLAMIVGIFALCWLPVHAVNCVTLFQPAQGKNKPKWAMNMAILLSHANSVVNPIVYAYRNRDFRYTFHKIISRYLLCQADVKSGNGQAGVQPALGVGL
pKi: −log10 of the molar value.
quantity: pKi

As a guide, the following entries are already answered.
Cc1cc(-c2c(-c3cccc(C#N)c3)nn3ccc(N4CC5CCC(C4)O5)nc23)cc(Cl)n1    7.66
Fc1cccc(-c2cc3nc(NCc4nc5ccccc5[nH]4)ccn3n2)c1    5.62
Cc1cc(-c2c(-c3cccc(C#N)c3)nn3ccc(C(=O)NCC4(O)CCC4)nc23)cc(Cl)n1    8.52
CCn1nccc1-c1c(-c2cccc(C#N)c2)nn2ccc(C(=O)NCC(C)(C)O)nc12    6.62

(P) Brc1c(-c2ccco2)nn2ccc(NCc3ccccc3)nc12
(Q) Cc1cc(-c2c(-c3cccc(C#N)c3)nn3ccc(NC(=O)C(C)(C)C)nc23)cc(Cl)n1
Min pKi? P | Q I would appreciate it if you answered with the label of your choice. P
(P: 5.55, Q: 7.51)

(A) Cn1cc(-c2c(-c3cccc(C#N)c3)nn3ccc(N)nc23)cn1
(B) Cc1cc(-c2c(-c3cccc(C#N)c3)nn3ccc(NCc4nnc[nH]4)nc23)cc(Cl)n1
Min pKi? A | B I would appreciate it if you answered with the label of your choice. A

====

targetOrTestSystem: human Adenosine A2b receptor (Homo sapiens, UniProt P29275)
Sequence (P29275 1-332): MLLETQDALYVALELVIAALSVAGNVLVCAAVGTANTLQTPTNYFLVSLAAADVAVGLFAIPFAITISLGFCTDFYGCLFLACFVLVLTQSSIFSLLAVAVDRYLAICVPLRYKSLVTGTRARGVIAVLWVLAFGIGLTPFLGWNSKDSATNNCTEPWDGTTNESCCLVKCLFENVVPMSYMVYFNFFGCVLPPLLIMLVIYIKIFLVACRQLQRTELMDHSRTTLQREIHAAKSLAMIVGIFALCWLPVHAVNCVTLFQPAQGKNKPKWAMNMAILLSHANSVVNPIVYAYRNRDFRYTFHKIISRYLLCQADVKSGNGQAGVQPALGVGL
pKi: −log10 of the molar value.
quantity: pKi

As a guide, the following entries are already answered.
Cc1cc(-c2c(-c3cccc(C#N)c3)nn3ccc(C(=O)NCC4(C)COC(=O)N4)nc23)cc(C)n1 (stereo not drawn) [Example 92.21]    7.77
CCn1nccc1-c1c(-c2cccc(C#N)c2)nn2ccc(N3CC4CCC(C3)N4C)nc12 [Example 33.3]    6.15

(A) Cc1cc(-c2c(-c3cccc(C#N)c3)nn3ccc(C(=O)NC[C@H](O)CO)nc23)cc(Cl)n1 [Example 6.13]
(B) Cc1cc(-c2c(-c3cccc(C#N)c3)nn3ccc(NCC(C)(C)C(=O)O)nc23)cc(Cl)n1 [Example 2.13]
(C) Cc1ccc(-c2nn3ccc(NCc4ccccc4)nc3c2C#N)o1 [Example 64]
(D) Cc1cc(-c2c(-c3cccc(C#N)c3)nn3ccc(C(=O)N[C@@H]4COC[C@@]4(C)O)nc23)cc(C)n1 [Example 92.13]
# rank_down: sort by pKi, max first Could you list the labels in the order requested? A, D, C, B
